# system: HCV NS5B RNA-dependent RNA polymerase (1b-BKΔ55) (Hepatitis C virus genotype 1b, UniProt P26663)
# Sequence (P26663 2420-2955 limits assumed, stated change not applied): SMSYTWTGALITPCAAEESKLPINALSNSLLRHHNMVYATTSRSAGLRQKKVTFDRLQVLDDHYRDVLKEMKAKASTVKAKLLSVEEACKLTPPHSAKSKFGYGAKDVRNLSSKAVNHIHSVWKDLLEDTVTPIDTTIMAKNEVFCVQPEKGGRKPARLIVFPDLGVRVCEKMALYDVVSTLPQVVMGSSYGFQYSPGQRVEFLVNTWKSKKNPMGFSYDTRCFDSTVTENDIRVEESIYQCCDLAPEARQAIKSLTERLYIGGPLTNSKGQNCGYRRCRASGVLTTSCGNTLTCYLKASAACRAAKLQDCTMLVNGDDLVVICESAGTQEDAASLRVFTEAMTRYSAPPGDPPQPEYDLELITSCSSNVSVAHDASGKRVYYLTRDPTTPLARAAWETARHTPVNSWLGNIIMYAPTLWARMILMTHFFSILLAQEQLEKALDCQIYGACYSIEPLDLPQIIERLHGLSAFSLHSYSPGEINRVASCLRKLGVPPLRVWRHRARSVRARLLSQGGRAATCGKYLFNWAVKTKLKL
pIC50: −log10 of the molar value.
# pIC50 per record follows

- molecule: "C[C@@]1(N=[N+]=[N-])[C@H](O)[C@@H](COP(=O)(O)OP(=O)(O)OP(=O)(O)O)O[C@H]1n1ccc(=O)[nH]c1=O [Compound 74]"
  pIC50: 4.26
- molecule: "C[C@@]1(N=[N+]=[N-])[C@H](O)C(COP(=O)(O)OP(=O)(O)OP(=O)(O)O)O[C@H]1n1cnc2c(=O)[nH]c(N)nc21 (stereo partly drawn) [Compound 76]"
  pIC50: 5.77
- molecule: "C[C@@]1(N=[N+]=[N-])[C@H](O)C(COP(=O)(O)OP(=O)(O)OP(=O)(O)O)O[C@H]1n1ccc(N)nc1=O (stereo partly drawn) [Compound 75]"
  pIC50: 5.00

---

Notes on Cytotoxicity obtained with replicon cells.
experimental.readout: Cytotoxicity

- compound: "CC(C)OC(=O)[C@H](C)NP(=O)(OC[C@H]1O[C@@H](n2ccc(=O)[nH]c2=O)[C@](C)(N=[N+]=[N-])[C@@H]1O)Oc1ccc(Cl)c(Cl)c1 (stereo partly shown) [drawing 890]"
  result: "42 µM"
- compound: "CCOC(=O)[C@H](C)NP(=O)(OC[C@H]1O[C@@H](n2cnc3c(OC)nc(N)nc32)[C@](C)(N=[N+]=[N-])[C@@H]1O)Oc1ccccc1 (stereo partly shown) [drawing 880]"
  result: ">100 µM"
- compound: "CCOC(=O)[C@H](C)NP(=O)(OC[C@H]1O[C@@H](n2cnc3c(OC)nc(N)nc32)[C@](C)(N=[N+]=[N-])C1O)Oc1ccc(Cl)cc1 (stereo partly shown)"
  result: ">100 µM"
- compound: "CCOC(=O)[C@H](C)NP(=O)(OC[C@H]1O[C@@H](n2cnc3c(OCC)nc(N)nc32)[C@](C)(N=[N+]=[N-])[C@@H]1O)Oc1ccccc1 (stereo partly shown) [drawing 881]"
  result: ">100 µM"
- compound: "CC(C)OC(=O)[C@H](C)NP(=O)(OC[C@H]1O[C@@H](n2ccc(N)nc2=O)[C@](C)(N=[N+]=[N-])[C@@H]1O)Oc1ccccc1Cl (stereo partly shown) [drawing 885]"
  result: ">100 µM"
- compound: "CCOC(=O)c1ccccc1OP(=O)(N[C@@H](C)C(=O)OC)OC[C@H]1O[C@@H](n2ccc(=O)[nH]c2=O)[C@](C)(N=[N+]=[N-])[C@@H]1O (stereo partly shown)"
  result: ">100 µM"
- compound: "CC(C)OC(=O)[C@H](C)NP(=O)(OC[C@H]1O[C@@H](n2ccc(=O)[nH]c2=O)[C@](C)(N=[N+]=[N-])[C@@H]1O)Oc1ccccc1 (stereo partly shown)"
  result: ">100 µM"
- compound: "CCOC(=O)[C@H](C)NP(=O)(OC[C@H]1O[C@@H](n2cnc3c(N4CCC4)nc(N)nc32)[C@](C)(N=[N+]=[N-])[C@@H]1O)Oc1ccccc1 (stereo partly shown) [drawing 882]"
  result: ">100 µM"
- compound: "CC(C)COC(=O)[C@H](C)NP(=O)(OC[C@H]1O[C@@H](n2ccc(=O)[nH]c2=O)[C@](C)(N=[N+]=[N-])[C@@H]1O)Oc1ccccc1 (stereo partly shown) [drawing 892]"
  result: "55 µM"
- compound: "CCOc1nc(N)nc2c1ncn2[C@@H]1O[C@H](COP(=O)(N[C@@H](C)C(=O)OC)Oc2ccc(Cl)cc2)[C@@H](O)[C@@]1(C)N=[N+]=[N-] (stereo partly shown) [drawing 887]"
  result: "25 µM"
- compound: "COC(=O)[C@H](C)NP(=O)(OC[C@H]1O[C@@H](n2cnc3c(NC4CC4)nc(N)nc32)[C@](C)(N=[N+]=[N-])[C@@H]1O)Oc1ccccc1Cl (stereo partly shown) [drawing 883]"
  result: ">100 µM"
- compound: "COC(=O)[C@H](C)NP(=O)(OC[C@H]1O[C@@H](n2ccc(N)nc2=O)[C@](C)(N=[N+]=[N-])[C@@H]1O)Oc1ccc(Cl)c(Cl)c1 (stereo partly shown)"
  result: ">100 µM"
- compound: "CCCC(CCC)COC(=O)[C@H](C)NP(=O)(OC[C@H]1O[C@@H](n2ccc(=O)[nH]c2=O)[C@](C)(N=[N+]=[N-])[C@@H]1O)Oc1ccccc1 (stereo partly shown) [drawing 886]"
  result: "83 µM"

---

Listing of entries alongside the reported EC50.
# System: HCV replicon cells
# assay.explanation: Cell-based HCV replicon assay (replicon RNA by Taqman real time PCR)
# recorded.conditions: HCV replicon 1b, cells harvested on day 3; read-out: 1b EC50

- molecule: "CCCOP1(=O)OC[C@H]2O[C@@H](n3ccc(=O)[nH]c3=O)[C@](C)(N=[N+]=[N-])[C@@H]2O1 (single isomer, unassigned) [Compound 566]"
  reading.unit: "µM"
  rel: ">"
  EC50: 100
- molecule: "CCOc1nc(N)nc2c1ncn2[C@@H]1O[C@@H]2COP(=O)(OC3CCC3)O[C@H]2[C@@]1(C)N=[N+]=[N-] (single isomer, unassigned) [Compound 108]"
  reading.unit: "µM"
  rel: "="
  EC50: 24.1
- molecule: "COc1nc(N)nc2c1ncn2[C@@H]1O[C@@H]2COP(=O)(OC3CCC3)O[C@H]2[C@@]1(C)N=[N+]=[N-] (single isomer, unassigned)"
  reading.unit: "µM"
  rel: "="
  EC50: 10.9
- molecule: "CC(C)OP1(=O)OC[C@H]2O[C@@H](n3ccc(=O)[nH]c3=O)[C@](C)(N=[N+]=[N-])[C@@H]2O1 (single isomer, unassigned) [Compound 564]"
  reading.unit: "µM"
  rel: ">"
  EC50: 100
- molecule: "C[C@@]1(N=[N+]=[N-])[C@@H]2OP(=O)(OC3CCCC3)OC[C@H]2O[C@H]1n1ccc(=O)[nH]c1=O (some centres unmarked) [Compound 88]"
  reading.unit: "µM"
  rel: "="
  EC50: 0.4

---

# Test system: HCV replicon cells
# assay.explanation: Cell-based HCV replicon assay (replicon RNA by Taqman real time PCR)
# recorded.conditions: Hepatitis C virus, 72 h, HCV replicon 1b, cells harvested on day 3; read-out: 1b EC50
pEC50: −log10 of the molar value.

- molecule: "CCCC(CCC)COC(=O)[C@H](C)NP(=O)(O)OC[C@H]1O[C@@H](n2ccc(N)nc2=O)[C@](C)(N=[N+]=[N-])[C@@H]1O"
  rel: "="
  pEC50: 4.00
- molecule: "C[C@@]1(N=[N+]=[N-])[C@H](O)[C@@H](CO)O[C@H]1n1cnc2c(NC3CC3)nc(N)nc21"
  rel: "<"
  pEC50: 4.00
- molecule: "CCCOP1(=O)OC[C@H]2O[C@@H](n3cnc4c(OCC)nc(N)nc43)[C@](C)(N=[N+]=[N-])[C@@H]2O1 (stereo partly shown)"
  rel: "<"
  pEC50: 4.00
- molecule: "CCCOP1(=O)OC[C@H]2O[C@@H](n3ccc(N)nc3=O)[C@](C)(N=[N+]=[N-])[C@@H]2O1 (stereo partly shown)"
  rel: "<"
  pEC50: 4.00
- molecule: "C[C@@]1(N=[N+]=[N-])[C@H](O)[C@@H](CO)O[C@H]1n1ccc(N)nc1=O"
  rel: "="
  pEC50: 4.59
- molecule: "COc1nc(N)nc2c1ncn2[C@@H]1O[C@@H]2COP(=O)(OC3CCCC3)O[C@H]2[C@@]1(C)N=[N+]=[N-] (stereo partly shown)"
  rel: "="
  pEC50: 4.77
- molecule: "C[C@@]1(N=[N+]=[N-])[C@H](O)[C@@H](CO)O[C@H]1n1cnc2c(N3CCC3)nc(N)nc21"
  rel: "<"
  pEC50: 4.00
- molecule: "CC(C)OP1(=O)OC[C@H]2O[C@@H](n3ccc(N)nc3=O)[C@](C)(N=[N+]=[N-])[C@@H]2O1 (stereo partly shown)"
  rel: "<"
  pEC50: 4.00
- molecule: "C[C@@]1(N=[N+]=[N-])[C@H](O)[C@@H](CO)O[C@H]1n1cnc2c(=O)[nH]c(N)nc21"
  rel: "<"
  pEC50: 4.00
- molecule: "COC(=O)[C@H](C)NP1(=O)OC[C@H]2O[C@@H](n3ccc(N)nc3=O)[C@](C)(N=[N+]=[N-])[C@@H]2O1 (single isomer, unassigned)"
  rel: "="
  pEC50: 4.23
- molecule: "COc1nc(N)nc2c1ncn2[C@@H]1O[C@@H]2COP(=O)(OC3CCC3)O[C@H]2[C@@]1(C)N=[N+]=[N-] (single isomer, unassigned)"
  rel: "="
  pEC50: 4.96
- molecule: "CCOc1nc(N)nc2c1ncn2[C@@H]1O[C@@H]2COP(=O)(OC(C)C)O[C@H]2[C@@]1(C)N=[N+]=[N-] (stereo partly shown)"
  rel: "="
  pEC50: 4.16
- molecule: "CCOc1nc(N)nc2c1ncn2[C@@H]1O[C@@H]2COP(=O)(NC3CCCCC3)O[C@H]2[C@@]1(C)N=[N+]=[N-] (stereo partly shown)"
  rel: "="
  pEC50: 4.00
